tgt: HIF PHD2 (Homo sapiens)
procedure text: PHD2 inhibition assay, TR-FRET detection with VCB-Eu
Format: biochemical
assay setup: Table 5; Example and Comparative Compounds
Experimental: Inhibition of HIF PHD2 activity was quantified utilizing the TR-FRET technology. […] The reaction was terminated by addition of 25 μL TR-FRET Buffer (50 mM TRIS-HCl, pH 9, 100 mM NaCl, 0.05% BSA, and 0.5% Tween-20) containing 150 mM succinate (product inhibitor; 50 mM final), 75 nM streptavidin-APC (25 nM final), and 7.5 nM VCB-Eu (2.5 nM final). The TR-FRET detection reagents were placed on a shaker for 1 hour to reach binding equilibrium before reading on the Discovery platform (PerkinElmer). […]
pIC50: −log10 of the molar value.
measured attribute: pIC50

* Cn1c(=O)c(C(=O)NCC(=O)O)c(O)c2ccc(Br)cc21 [Comparative Example 3, reference compound] | 7.34

I: Cn1c(=O)c(C(=O)NCC(=O)O)c(O)c2cccc(Br)c21 [Comparative Example 4, reference compound]
II: Cn1c(=O)c(C(=O)NCC(=O)O)c(O)c2cc(Br)ccc21 [Comparative Compound 2, reference compound]
III: Cn1c(=O)c(C(=O)CCC(=O)O)c(O)c2ccc(Br)cc21
IV: Cn1c(=O)c(C(=O)NCC(=O)O)c(O)c2c(Br)cccc21 [Comparative Compound 1, reference compound]
Task: List these items ordered by pIC50, big to small. Respond with an ordered listing of the labels, as requested.
Output: III, I, IV, II
(III: 7.19, I: 6.98, IV: 6.73, II: 6.45)

* * *

tgt: HIF PHD2 (Homo sapiens, UniProt Q9GZT9)
Sequence (Q9GZT9 whole entry): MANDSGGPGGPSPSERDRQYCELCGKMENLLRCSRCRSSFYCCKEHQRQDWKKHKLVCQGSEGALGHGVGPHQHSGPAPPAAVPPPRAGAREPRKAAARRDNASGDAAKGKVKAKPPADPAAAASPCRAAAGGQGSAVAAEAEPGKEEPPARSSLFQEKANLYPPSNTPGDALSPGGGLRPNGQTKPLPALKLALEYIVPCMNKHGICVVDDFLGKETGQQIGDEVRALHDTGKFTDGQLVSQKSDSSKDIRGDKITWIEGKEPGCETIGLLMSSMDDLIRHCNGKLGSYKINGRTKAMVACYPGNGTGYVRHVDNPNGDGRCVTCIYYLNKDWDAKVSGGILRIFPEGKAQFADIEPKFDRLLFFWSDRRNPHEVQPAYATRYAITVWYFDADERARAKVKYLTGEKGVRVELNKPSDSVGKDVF
procedure text: PHD2 inhibition assay, TR-FRET detection with VCB-Eu
Type: biochemical
assay setup: Table 4; TR-FRET, 2 nM PHD2, 100 nM P564-HIF1α peptide, 0.25 μM 2-oxoglutarate
pIC50: −log10 of the molar value.
measured attribute: pIC50

Before answering, review these 5 worked examples.
* Cn1c(=O)c(C(=O)CCC(=O)O)c(O)c2cc(Br)ccc21 | 6.51
* Cn1c(=O)c(C(=O)CCC(=O)O)c(O)c2c(Br)cccc21 | 6.46
* Cn1c(=O)c(C(=O)CCC(=O)O)c(O)c2ccc(Br)cc21 | 7.19
* Cn1c(=O)c(C(=O)CCC(=O)O)c(O)c2c(F)ccc(F)c21 | 6.11
* Cn1c(=O)c(C(=O)CCC(=O)O)c(O)c2cc(I)cnc21 | 6.68

A: Cn1c(=O)c(C(=O)CCC(=O)O)c(O)c2cccc(Br)c21
B: Cn1c(=O)c(C(=O)CCC(=O)O)c(O)c2ccc(F)c(F)c21
C: Cn1c(=O)c(C(=O)CCC(=O)O)c(O)c2ccc(-c3ccc(C(=O)O)cc3)cc21
D: Cn1c(=O)c(C(=O)CCC(=O)O)c(O)c2ccc(C(F)(F)F)nc21
E: O=C(O)CCC(=O)c1c(O)c2ccc(F)c(F)c2n(Cc2ccccc2)c1=O
Task: Place the items in sequence of falling pIC50. Order the labels as requested and list them.
Output: C, D, E, B, A
(C: 7.94, D: 7.19, E: 6.87, B: 6.55, A: 6.11)

* * *

tgt: Collagen Prolyl Hydroxylase II (CPH2) (Homo sapiens, UniProt O15460)
Sequence (O15460 22-533 isoform O15460-2): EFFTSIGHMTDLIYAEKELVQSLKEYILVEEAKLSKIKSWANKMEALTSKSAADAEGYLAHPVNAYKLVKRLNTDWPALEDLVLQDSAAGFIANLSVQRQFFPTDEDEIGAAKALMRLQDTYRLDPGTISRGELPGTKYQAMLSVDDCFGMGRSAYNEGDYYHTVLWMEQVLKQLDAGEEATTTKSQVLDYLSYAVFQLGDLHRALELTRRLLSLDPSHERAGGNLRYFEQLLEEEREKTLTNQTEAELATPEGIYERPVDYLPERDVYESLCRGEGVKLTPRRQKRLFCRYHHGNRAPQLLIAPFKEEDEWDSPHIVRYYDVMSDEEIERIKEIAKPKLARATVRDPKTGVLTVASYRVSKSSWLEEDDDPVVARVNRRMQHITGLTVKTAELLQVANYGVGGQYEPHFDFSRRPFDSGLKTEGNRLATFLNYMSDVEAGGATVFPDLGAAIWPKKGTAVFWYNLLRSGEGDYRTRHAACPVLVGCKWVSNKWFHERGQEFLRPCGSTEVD
Sequence (P07237 18-508 partner): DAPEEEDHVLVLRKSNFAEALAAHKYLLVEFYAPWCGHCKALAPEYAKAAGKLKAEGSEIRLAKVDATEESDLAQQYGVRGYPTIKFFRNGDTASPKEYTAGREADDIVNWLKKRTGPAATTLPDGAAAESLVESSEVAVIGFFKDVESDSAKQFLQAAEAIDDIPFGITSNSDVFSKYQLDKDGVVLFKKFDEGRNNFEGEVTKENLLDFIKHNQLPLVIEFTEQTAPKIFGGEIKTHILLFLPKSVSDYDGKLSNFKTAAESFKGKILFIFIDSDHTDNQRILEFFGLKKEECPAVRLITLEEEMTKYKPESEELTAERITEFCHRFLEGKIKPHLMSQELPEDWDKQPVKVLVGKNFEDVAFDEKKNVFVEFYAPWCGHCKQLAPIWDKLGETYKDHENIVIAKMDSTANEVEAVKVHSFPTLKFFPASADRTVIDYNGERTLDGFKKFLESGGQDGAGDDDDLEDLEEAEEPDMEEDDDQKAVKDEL
measured attribute: IC50 (nM)

// worked examples, IC50 included
• Cn1c(=O)c(C(=O)NCC(=O)O)c(O)c2cccc(Br)c21 [Comparative Example 4, reference compound] = 261
• Cn1c(=O)c(C(=O)NCC(=O)O)c(O)c2cc(Br)ccc21 [Comparative Compound 2, reference compound] = 115
• Cn1c(=O)c(C(=O)NCC(=O)O)c(O)c2c(Br)cccc21 [Comparative Compound 1, reference compound] = 58
• Cn1c(=O)c(C(=O)CCC(=O)O)c(O)c2cccc(Br)c21 [Example 2] = 1870

1: Cn1c(=O)c(C(=O)NCC(=O)O)c(O)c2ccc(Br)cc21 [Comparative Example 3, reference compound]
2: Cn1c(=O)c(C(=O)CCC(=O)O)c(O)c2ccc(Br)cc21 [Example 4]
Task: // which entry has the larger IC50 value, 1 or 2 ? Output the label that corresponds to your choice.
Output: 2

Reference source: patent US8349868B2
